test system: HOP-62 NSCLC; assay: NCI-60 one-dose screen, 48 h; conditions: 10 µM unless noted
This is part of a sample that, as a whole, favours compounds with a hit. Of some 83,000 tested, about 20% had one in any assay. Active and inactive are the calls of the source. Rule for the calls: active = growth percent below 10; inactive = the rest.
Can you answer with just one of these options? active, inactive

[Q] Look up the recorded call for CCCCCCCCCCCCCC1=NCC[N+]1(CCO)Cc1ccccc1 (configuration not stated) in this test.
[A] active

[Q] Look up the recorded call for C=CCn1c(SCC(=O)Nc2ccc(C(=O)/C=C/c3cc(OC)c(OC)c(OC)c3)cc2)nnc1-c1ccccc1 in this test.
[A] inactive

[Q] Look up the recorded call for Cn1nc(C(F)(F)F)c(-c2cc(C(F)(F)F)cc(C(F)(F)F)c2)c1-c1ccc(OCc2ccc(Cl)cc2)cc1O in this test.
[A] active

[Q] Look up the recorded call for c1ccc2nc(N3CCOCC3)c(N3CCCCC3)nc2c1 in this test.
[A] inactive

[Q] Look up the recorded call for [2H]c1cc2c(c([2H])c1F)/C(=C/c1[nH]c(C)c(C(=O)NCCN(CC)CC)c1C)C(=O)N2 in this test.
[A] inactive

[Q] Look up the recorded call for Cc1[nH]c2ncnc(Oc3ccc(NC(=O)Nc4ccc(Cl)c(C(F)(F)F)c4)cc3)c2c1C in this test.
[A] inactive

[Q] Look up the recorded call for NC(=N\N=C\c1ccccc1O)/C(N)=N/N=C/c1ccccc1O in this test.
[A] inactive

[Q] Look up the recorded call for CCOC(=O)c1c(C)nc2c(c1N)/C(=C/c1cccs1)C(=O)N2Cc1ccccc1 in this test.
[A] inactive

[Q] Look up the recorded call for Cc1ccc(SC2c3ccc(C)cc3Oc3nc(N)c(C#N)c(N)c32)cc1 (configuration not stated) in this test.
[A] inactive

[Q] Look up the recorded call for O=c1nc(-c2ccccc2)c2cc(-c3ccc(N4CCCC4)nc3)ccc2[nH]1 in this test.
[A] inactive

[Q] Look up the recorded call for C#Cc1ccccc1NC(=O)c1sc2nc3c(cc2c1N)CCCCCC3 in this test.
[A] inactive

[Q] Look up the recorded call for O=C(/C(=C/c1ccc([N+](=O)[O-])cc1)SCc1ccc(Cl)cc1)c1ccc(F)cc1 in this test.
[A] inactive

[Q] Look up the recorded call for NC[C@@H]1CCN(c2cc3c(cc2F)c(=O)n(N)c(=O)n3Cc2ccc(-c3ccccc3)cc2)C1 in this test.
[A] inactive

[Q] Look up the recorded call for CC[C@H](Nc1ncnc2nc[nH]c12)c1nc2cccc(CC(=O)c3ccc(C(=O)NO)cc3)c2c(=O)n1-c1ccccc1 in this test.
[A] inactive

[Q] Look up the recorded call for COc1cccc(NC(=O)Nc2ccc(Nc3ncnc4[nH]c(C)c(C)c34)cc2)c1 in this test.
[A] inactive

[Q] Look up the recorded call for N#Cc1c(NC(=O)c2cccs2)[n+]([O-])c2cc(C(F)(F)F)ccc2[n+]1[O-] in this test.
[A] inactive

[Q] Look up the recorded call for C=C(C)[C@@H]1CC[C@]2(C(=O)O)CC[C@]3(C)[C@H](CC[C@@H]4[C@@]5(C)C[C@@H](CC#Cc6ccccc6)C(=O)C(C)(C)[C@@H]5CC[C@]43C)[C@@H]12 in this test.
[A] inactive

[Q] Look up the recorded call for OCCNc1nc(NCCO)nc(Nc2ccc(C3=NN(c4ccc(Cl)cc4)C(c4ccc(Cl)cc4)C3)cc2)n1 (configuration not stated) in this test.
[A] inactive

[Q] Look up the recorded call for CCOC(=O)/C(=C/c1c(-c2ccccc2)[nH]c2ccccc12)C(=O)c1ccc(Cl)cc1 in this test.
[A] inactive
